test: yeast display, Sf9 membrane polyspecificity reagent, FACS + sequencing; frameworks hold sequencing errors
measurement_type: polyreactivity (PSR sort gate)

[[record]]
chain = "QVQLVESGGGLVQAGGSLRLSCAASGSIFARNAMGWYRPAPGKERELVAVITTGGRTYYADSVKGRFTISRDNAKNTVYLQMNSLKPEDTAVYYCATRVIYGHSGGYWGQGTQVTVSS"
reading = "high polyreactivity"

[[record]]
chain = "QVQLVESGGGLVQAGGSLRLSCAASGSIFKRNAMGWYRQAPGKERELVAAITSSGGTTYYADSVKGRFTISRDNAKNTVYLQMNSLKPEDTAVYYCNAGYGVRSVRRFDYWGQGTQVTVSS"
reading = "high polyreactivity"

[[record]]
chain = "QVQLVESGGGLVQAGGSLRLSCAASGNIFFGYAMGWYRQAPGKEREFVASITKIGGSTYYADSVQGRFTISRDNAKNTVYLQMNSLKPEHTAVYYCAKTILYDCDYWGQGTQVTVSS"
reading = "low polyreactivity"

[[record]]
chain = "QVQLVESGGGLVQAGGSLRLSCPASGSIFDFYAMGWYRQAPGKERELVAAIDDIDDSTYYADSVKGRFTISRDNAKNTVYLQMNSLKPEDTAVYDCAAELRPGYRSSYGLIYDYWGQGTQVTVSS"
reading = "low polyreactivity"

[[record]]
chain = "QVQLVESGGGLVQAGGSLRLSCAASGSTFRYYTMGWYRQAPGKERELVAAITYSGGSTYYADSVKGRFTISRDNAKNTVYLQMNSLKPEDTAVYYCAKRWSQPKYDYWGQGTQVTVSS"
reading = "high polyreactivity"

[[record]]
chain = "QVQLVESGGGLVHAVGSLRLSCAASGFIFHEYAMGCYIQAPGKERELVAAISSGGGSTYYADSVKGRFTISRDNAKNTVYLQMNSLKPEDTAVYYCAADATAYSVLTRDYWGQGTQVTVSS"
reading = "high polyreactivity"

[[record]]
chain = "QVQLVESGGGLVQAGGSLRLSCAASGSTLWAYAMGWYRQAPGKERELVASISSGGNTNYADSVKGRFTISRDNAKNTVYLQMNSLKPEDTAVYYCAAVGYLYFWYPYDYWGQGTQLTVSS"
reading = "low polyreactivity"

[[record]]
chain = "QVQLVESGGGLVQAGGSLRLSCAASGSTLFTYAMGWYRQAPGKERELVAAITSSGSTYYADSVKGRFTISRDNAKNTVYLQMNSLKPEDTAVYYCAVPGYRYTKYYYWGQGTQVTVSS"
reading = "low polyreactivity"

[[record]]
chain = "QVQLVESGGGLVQAGGSLRLSCAATGSTFIGYAMGWYRQAPGKETELVAAISEIGGSTYYADSVKGRFTISRDNAKNTVYLKMNSLKPEDTAVDYCAATEVYLYFWYGYEYWGQGTQVTVSS"
reading = "low polyreactivity"

[[record]]
chain = "QVQLVESGGGLVQAGGSLRLSCAASGSTFPINAMGWYRQAPGTERELVAAIDTNTASTYYADSVKGRFTISRDNAKNTVYLQMNSLKPEDTAVYYCAAEEWFYDGNVIYDWGQGTQVTVSS"
reading = "high polyreactivity"

[[record]]
chain = "QVQLVESGGGLVQAGGSLRLTCAASGNIFSTYAMGWYRQAPGKERELVASISENGGSTYYADSVKGRFSISRDNAKTTVYLQMNSLKPEHTAVYYCNKDYYYPNSWPKYVYWGQGTQVTLSS"
reading = "low polyreactivity"


* * *

test: yeast display, Sf9 membrane polyspecificity reagent, FACS + sequencing; frameworks hold sequencing errors
measurement_type: polyreactivity (PSR sort gate)

[[record]]
chain = "QVQLVESGGGLVQAGGSLRLSCAASGLTFRWYALGWFRQATGKERELVAAISSGGRTYYADSVKGRFTISRDNANNTVYLQMNSRKPEDTAVYYCNKRTLDYGFGSYGREYWGQGTQVTVSS"
reading = "high polyreactivity"

[[record]]
chain = "QVQLVESGGGLVQAGGRLRLSCAASGRIFRGYAMGWYRQAPGKERELVAGITWGGGRTYYADSVKGRFTISRDNAKNTVYLQLNSLKPEDTAVYYCAAYYSQDSRRKYDYWGQGTQVTVSS"
reading = "high polyreactivity"


* * *

experiment: yeast display, Sf9 membrane polyspecificity reagent, FACS + sequencing; frameworks hold sequencing errors
measurement_type: polyreactivity (PSR sort gate)

[[record]]
chain = "HVQLVESGGGLVQAGGSLRLSCAASGSIYALYDLGRYRQAPGKERELVASITGSGGNTYYADSVKGRFTISRDNAKNTVYLQMNSLKPEDTAVYYCAADFRYAGYSYDYWGQGTQVSVSS"
reading = "low polyreactivity"

[[record]]
chain = "QVQLVESGGGLVQEGGSLRLSCAASGLIFNRYDMGWYRQAPGKVTELVAAITSRGGRTYYADSVKGRFTISLDNAKTTVYLQMNSLKPEDTAVYYCNRTPTGSSLYGMDYWGQGTQVTVSS"
reading = "high polyreactivity"

[[record]]
chain = "QVQLVESGGGLVQAGGSLRLSCAASGLIYSYNAMGWTRQAPGKERELVAAISRSGGTPYYADSVKGRFTISRDNANNTVYLQMNSLKPEDTEVYYCAAEIRFLSWEYDYWGQGTQVSVSS"
reading = "high polyreactivity"

[[record]]
chain = "QVQLVESGGGLVQEGGSLRLSCAASGSTFGVYSMGWYRQAPGKERELVAAISYTGGSTYYADSVKGRFTISRDNAKNSVYLQMNSLKPEDTGVFYCAVEVGYTDSPYSYDYWGEGTQVTVSS"
reading = "low polyreactivity"

[[record]]
chain = "QVQLVESGGGLVQAGGSLRLSCAASGFTFIQYDMGWYRLAPGKERELVAAISSSGGSTYYADSVKGRFTISRDNAKNTVYLQMNSLKPEDTAVYNCAADPWVRLEYDYWGQGTQVTVSS"
reading = "low polyreactivity"

[[record]]
chain = "QVQLVESGGGLVQAGGSLRLSCAFYYGMGWYRQAPGKERELVAAITLGGGSTYYADSVKGRFTISRDNAKNTVYLQMNSLKPEDTAVYYCNVTDVTEPSLIDGYYWGQGTQVTVSS"
reading = "low polyreactivity"

[[record]]
chain = "QVQHVESGGGLVQAGGSLRLICAASGRIFTRYAMGWYRQAPGKERELVAAISASGGSTHYADSVKGRFTISRDNAKNTVYLQMNSLKPEDTAVYYCADAYVSRNSGFGYWGQGTQVTVSS"
reading = "low polyreactivity"

[[record]]
chain = "QVQLVESGGGLVQAGGSLRLSCAASGFTFGSYAMGWYRQAPGKERELVAAITYSGSRTYYADSVKGRFTISRDNAKNTVYLQMNSLKPEDTAVYYCAAVTHYGFDYWGQGTQVTVSS"
reading = "high polyreactivity"

[[record]]
chain = "QVHLQDSGGGLVQAGGSLRLSCAASCYISDVNDMGWYRQAPGKEREFVAGIGYGGITNYADSVKGRFTISRDNAQNTVYQHMNSLKPKDTAVYNCAVHWGPDSGLYYWGQGTQVTVSS"
reading = "high polyreactivity"

[[record]]
chain = "QVQLVESGGGLVQAGGSLRLSCAASGRTFYPYAMGWYRQAPGKERELVAAIRSSGGTTYYADSVKGRFTISRDNAKNTVYLQMNSLKPEDTAVYYCAAYVDRQGGYYWGQGTQVTVSS"
reading = "high polyreactivity"

[[record]]
chain = "QVHLVESGGVLVQAGGSLRLSCAASGRIFYRYAMGWYRQAPGKERELVAAITHRGGSTYYADSVKGRFTISRDNAKNTVYLQMNSLKPEDTAVYYCAGRITEAVADYVGHKPYDYWGQGTQVTVSS"
reading = "low polyreactivity"


* * *

assay: yeast display, Sf9 membrane polyspecificity reagent, FACS + sequencing; frameworks hold sequencing errors
measurement_type: polyreactivity (PSR sort gate)

[[record]]
chain = "QVQLVESGGGLVQAGGSLRLSCAASGLTFVQYAMGWYRQAPGKERELVAAISRNGGSTYYADSVKGRFTISRDNAKNTVYLQMNSLKPEDTAVYYCATRISYPWWAYDYWGQGTQVTVSS"
reading = "high polyreactivity"

[[record]]
chain = "QVQLVESGGGLVQAGGSLRLSCAASGSIFYWNAMGWYRQAPGKERELVAAISYNGGSTYYADSVKGRFTISRDNAKNTVYLQMNSLKPEDTAVYYCARLDSAAEPRQYDYWGQGTQVTVSS"
reading = "high polyreactivity"

[[record]]
chain = "QVQLVESGGGLVQAGGSLRVSCAASGGIFWYYTMGWYRQAPGKERELVATISSGGRTYYADSVKGRFTISRDNAKNTVYLQMNSLKPEDTAVYYCAAVGWYHDYYWGQGTQVTVSS"
reading = "high polyreactivity"

[[record]]
chain = "QVQLVESGGGLVQEGGSLRLSCAASGILVYNAMGWYRQAPGTERELVAAISARGGRTYYADSVKGRFTISRDNAQNTDSLQMNSLKPEDTAVYYCASRSSKSRTYDYWGQGTQVTVSS"
reading = "high polyreactivity"

[[record]]
chain = "QVQLVESGGGLVQAGGSLRLSCAASGSTFRVNVMGWYRQATGKERELVAAITTSGGSTYYADSVKGRFSISRDNAQNTVYFQMNSLKPEDTAVYYCNTTYPSGWGPDMDYWGQGTQVTVSS"
reading = "low polyreactivity"

[[record]]
chain = "QVQLVESGGGLVQAGGSLRLSCAASGRTLGGYAMGWYRQAPGKERELVASITSTSSTYADSVKGRFTISRDNAKNTVYLQMNSLKPEDTAVYYCAADYFLTSYGWRIHYTYYYWGQGTQVTVSS"
reading = "low polyreactivity"

[[record]]
chain = "QVQLVESGGGLVQAGGSLRLSCAASGSTFQFNTMGWYRQAPGKERELDAAITYSGGSTYYADSVKGRFTISRDNAKNTVYLQMNSQKPEDTAVYYCAADIITYDYPSYDGYIRYPYYYWGQGTQVTVTS"
reading = "low polyreactivity"

[[record]]
chain = "QVQLVESGGGLVQAGGSLRLSCAASGRTFRYNDMGWYRQAPGKERELVAAITYTADRTYYADSVKGRFTISRDNAKNTVYLQMNSLKPEDTAVYYCNAAYGRRVTFRPYYWGQGTQVTVSS"
reading = "high polyreactivity"

[[record]]
chain = "QVKLVESGGGLVQAGGSLRLSCAASGRIFWSNAMVWYRQAPGKERELVAAISRRGGRTYYADSVKGRFTISRDNAKNTVYLQMNSLKPEDTAVYYCAADGTADYDYWGQGTQVTVSS"
reading = "high polyreactivity"

[[record]]
chain = "QVQLVESGGCLVQAGCSLRLSCAASGRIFSTYAMGWYRQAPGTERELVAAINKIGGSTYFADSVKGRFTISRDNAKNTVYLQMNSLKPEDTAVYYCAADAPYYPVRRYYYWGQGTQVTVSS"
reading = "low polyreactivity"

[[record]]
chain = "QVQLVESGGGLVQAGGSLRLSCAASGRTFWPYAMGWYRQAPGKERELVAAINWGGGSTYYADSVKGRFTISRDNAKNTVYLQMNSLKPEDTAVYYCAADVGRNKMDYWGQGTQVTVSS"
reading = "low polyreactivity"

